target_desc: thrombin (Bos taurus, UniProt P00735)
Where a SMILES comes first, the peptide text is derived from it. [ ]: non-standard residue; d: D form. The star is where a group is joined. Nva = CCC[C@H](N)C(=O)O; Ms = CS(=O)(=O)*
Quick reference for Ki among some compounds

Known Ki results, listed for orientation:
[
  {
    "compound": "CCC[C@H](NC(=O)[C@@H](CO)NS(=O)(=O)Cc1ccccc1)C(=O)N[C@@H](CCCNC(=N)N)C(=O)O [Compound 13, PhCH2SO2-D-Ser-NVa-Arg-OH]",
    "quantity": "Ki",
    "readout_value": "0.00082 mM"
  },
  {
    "compound": "CC(C)c1cc(C(C)C)c(S(=O)(=O)N[C@H](CO)C(=O)NCC(=O)N[C@@H](CCCNC(=N)N)C(=O)O)c(C(C)C)c1 [Compound 11, 2,4,6-TriiPrPhSO2-D-Ser-Gly-Arg-OH]",
    "quantity": "Ki",
    "readout_value": "> 20 mM"
  },
  {
    "compound": "CS(=O)(=O)N[C@H](CO)C(=O)NCC(=O)N[C@@H](CCCNC(=N)N)C(=O)O [Compound 12, CH3PhSO2-D-Ser-Gly-Arg-OH] (Ms-[dS]-Gly-Arg-OH; N-terminus and C-terminus assumed)",
    "quantity": "Ki",
    "readout_value": "> 20 mM"
  },
  {
    "compound": "C[C@H](NC(=O)[C@@H](CO)NS(=O)(=O)Cc1ccccc1)C(=O)N[C@@H](CCCNC(=N)N)C(=O)NCCCCCN [Compound 1, PhCH2SO2-D-Ser-Ala-Arg-NH-(CH2)5-NH2]",
    "quantity": "Ki",
    "readout_value": "> 20 mM"
  },
  {
    "compound": "CCC[C@H](NC(=O)[C@@H](CO)NS(C)(=O)=O)C(=O)N[C@@H](CCCNC(=N)N)C(=O)O [Compound 15, CH3PhSO2-D-Ser-NVa-Arg-OH] (Ms-[dS]-[Nva]-Arg-OH; N-terminus and C-terminus assumed)",
    "quantity": "Ki",
    "readout_value": "> 20 mM"
  }
]

Let's switch to this compound now.
Observed Ki on thrombin (Bos taurus, UniProt P00735) for CCC[C@H](NC(=O)[C@H](N)CO)C(=O)N[C@@H](CCCNC(=N)N)C(=O)NCCCCCN [Compound 16, H-D-Ser-NVa-Arg-NH-(CH2)5-NH2] , please.
> 20 mM

----------
target_desc: plasmin (Homo sapiens)
Construct: converts the pro-enzyme plasminogen into its active form plasmin; purchased Chromogenix (Milano, Italy)
Sequence (P00747 581-810 limits assumed): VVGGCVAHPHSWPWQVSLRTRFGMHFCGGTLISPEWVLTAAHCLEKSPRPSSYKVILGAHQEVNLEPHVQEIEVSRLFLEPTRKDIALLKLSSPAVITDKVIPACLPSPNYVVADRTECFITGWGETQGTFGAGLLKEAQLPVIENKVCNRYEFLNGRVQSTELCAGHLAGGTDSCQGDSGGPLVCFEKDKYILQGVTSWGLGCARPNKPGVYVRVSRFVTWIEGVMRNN
Sequence (P00747 97-580 partner limits assumed): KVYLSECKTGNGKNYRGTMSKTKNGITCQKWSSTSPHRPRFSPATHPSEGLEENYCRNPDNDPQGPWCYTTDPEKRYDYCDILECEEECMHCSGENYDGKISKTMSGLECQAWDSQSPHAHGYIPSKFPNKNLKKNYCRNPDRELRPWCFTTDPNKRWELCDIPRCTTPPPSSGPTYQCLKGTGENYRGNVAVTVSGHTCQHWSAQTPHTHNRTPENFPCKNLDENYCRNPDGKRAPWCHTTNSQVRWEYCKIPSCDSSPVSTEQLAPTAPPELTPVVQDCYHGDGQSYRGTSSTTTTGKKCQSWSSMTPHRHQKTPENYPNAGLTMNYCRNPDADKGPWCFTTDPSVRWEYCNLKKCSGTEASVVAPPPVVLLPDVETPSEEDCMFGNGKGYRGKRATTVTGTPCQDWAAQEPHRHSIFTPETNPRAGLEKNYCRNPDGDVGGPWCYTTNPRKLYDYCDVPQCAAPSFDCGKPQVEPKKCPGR
protocol_details: Amidolytic activity of plasmin, substrate S-2251
Assay type: biochemical
measurement_parameters: Ki calculated from IC50 by Cheng-Prusoff; triplicate; read-out: Ki ± SD Plasmin S-2251
pKi: −log10 of the molar value.
quantity: pKi

[
  {
    "chemical_string": "CC(C)c1cc(C(C)C)c(S(=O)(=O)N[C@H](CO)C(=O)NCC(=O)N[C@@H](CCCNC(=N)N)C(=O)NCCCCCN)c(C(C)C)c1",
    "quantity": "pKi",
    "readout_value": 4.25
  }
]

(1) CCC[C@H](NC(=O)[C@@H](CO)NS(=O)(=O)Cc1ccccc1)C(=O)N[C@@H](CCCNC(=N)N)C(=O)O
(2) CC(C)c1cc(C(C)C)c(S(=O)(=O)N[C@H](CO)C(=O)NCC(=O)N[C@@H](CCCNC(=N)N)C(=O)O)c(C(C)C)c1
pKi comparison. Which is larger, 1 or 2 ? # reply format: chosen label
1
(1: 4.87, 2: 4.05)
